Can you tell me IC50 at 5 days for the items I'm about to list?
Assay: MTT cytotoxicity assay, MDBK
Type: cell-based, bovine
Details: bovine, MDBK cells; MTT, 5 days; read-out: Cell Toxicity IC50 ± SE MDBK
# value in µM; strip the unit string

Inquiry: Tell me the measured IC50 at 5 days of COc1ccc2nc(C)cc(NN=Cc3ccccc3)c2c1 , please.
Reply text: 3.44

Inquiry: Recorded IC50 at 5 days of COc1ccc2nc(-c3ccccc3)cc(N/N=C/c3ccc(N(C)C)cc3)c2c1 , please.
Reply text: 6.24

Inquiry: Recorded IC50 at 5 days for COc1ccc2nc(-c3ccccc3)cc(N/N=C/c3cccc(OC)c3O)c2c1 , please?
Reply text: 6.6

Inquiry: I have this compound here, COc1ccc2nc(-c3ccccc3)cc(N/N=C/c3c[nH]cn3)c2c1 , and I need its recorded IC50 at 5 days.
Reply text: 9.31
